The entries below come with measured pest or weed control at 31 g/ha values attached.
- Test system: Galium (catchweed bedstraw, Galium aparine)
- protocol-details: Test A postemergence
- Assay type: in vivo
- condition-label: Galium, post-emergence, 240 h, Postemergence, 31 g ai/ha; 0 is no effect, 100 is complete control; read-out: Galium plant response rating (0 to 100 scale)

>  <compound>
CN1C[C@H](c2csc3c2CCC3)[C@@H](C(=O)Nc2cccc(F)c2F)C1=O [Compound 1278]

>  <pest or weed control at 31 g/ha, %>
0

$$$$
>  <compound>
Cc1cccc([C@H]2CN(C)C(=O)[C@@H]2C(=O)Nc2cnccc2C)c1 [Compound 1344]

>  <pest or weed control at 31 g/ha, %>
0

$$$$
>  <compound>
CN1C[C@H](c2cccc(C#N)c2)[C@@H](C(=O)Nc2cccc(F)c2F)C1=O [Compound 1286]

>  <pest or weed control at 31 g/ha, %>
20

$$$$
>  <compound>
Cc1ccc([C@H]2CN(C)C(=O)[C@@H]2C(=O)Nc2cccnc2F)cc1 [Compound 1398]

>  <pest or weed control at 31 g/ha, %>
30

$$$$
>  <compound>
Cc1ccc([C@H]2CN(C)C(=O)[C@@H]2C(=O)Nc2ccccc2)cc1 [Compound 1291]

>  <pest or weed control at 31 g/ha, %>
0

$$$$
>  <compound>
CN1C[C@H](c2ccc(Cl)c(F)c2)[C@@H](C(=O)Nc2cccc(F)c2F)C1=O [Compound 1265]

>  <pest or weed control at 31 g/ha, %>
60

$$$$
>  <compound>
O=C1NC[C@H](c2cc(Cl)cc(Cl)c2)[C@H]1C(=O)Nc1cccc(F)c1F [Compound 1273]

>  <pest or weed control at 31 g/ha, %>
40

$$$$
>  <compound>
CN1C[C@H](c2ccc3c(c2)C(F)(F)C(F)(F)O3)[C@@H](C(=O)Nc2cccc(F)c2F)C1=O [Compound 1271]

>  <pest or weed control at 31 g/ha, %>
60

$$$$
>  <compound>
CC(C)Oc1ccc([C@H]2CN(C)C(=O)[C@@H]2C(=O)Nc2ccccc2F)cc1F [Compound 1333]

>  <pest or weed control at 31 g/ha, %>
0

$$$$
>  <compound>
O=C(Nc1ccccc1F)C1C(=O)N(CC(F)F)CC1c1cccc(C(F)(F)F)c1 (centres unmarked) [Compound 1293]

>  <pest or weed control at 31 g/ha, %>
0

$$$$
>  <compound>
CN1C[C@H](c2csc3c2CCOC3)[C@@H](C(=O)Nc2ccccc2F)C1=O [Compound 1267]

>  <pest or weed control at 31 g/ha, %>
0

$$$$
>  <compound>
CN1C[C@H](c2ccc(Br)cc2)[C@@H](C(=O)Nc2ccc(F)c(F)c2F)C1=O [Compound 1393]

>  <pest or weed control at 31 g/ha, %>
50

$$$$
>  <compound>
CN1C[C@H](c2cccc(C(F)(F)F)c2)[C@@H](C(=O)Nc2ccc(F)nc2F)C1=O [Compound 1348]

>  <pest or weed control at 31 g/ha, %>
50

$$$$
>  <compound>
CN1C[C@H](c2cc(Cl)cc(Cl)c2)[C@@H](C(=O)Nc2cccc(F)c2F)C1=O [Compound 1270]

>  <pest or weed control at 31 g/ha, %>
60

$$$$

Where do these numbers come from? They come from patent US12077503B2.
